Origin of values: paper PMC12588090

molecular target: SARS-CoV-2 M^pro (Severe acute respiratory syndrome coronavirus 2, UniProt P0DTD1); experiment: SPE-MS M^pro inhibition assay; type: biochemical; conditions: SPE-MS; M^pro 0.05 μM, substrate 2.0 μM; n = 3, mean ± SD; freshly prepared DMSO stocks for 8; read-out: IC50
pIC50 overview
pIC50 field: float, defined as -log10 of concentration (mol/L).

Can you share its pIC50? I mean this molecule: CO[C@@]1(NC(=O)Cc2ccccc2)C(=O)N2[C@@H](C(=O)OCc3ccccc3)C(C)(C)S[C@@H]21 4.96

Can you share its pIC50? I mean this molecule: CO[C@H]1C(=O)N2[C@@H]1SC(C)(C)[C@@H]2C(=O)OCc1ccccc1 [26a] 5.92

Can you share its pIC50? I mean this molecule: CC1(C)[C@H](C(=O)OCc2ccccc2)N2C(=O)[C@@H](NC(=O)COc3ccccc3)[C@H]2S1(=O)=O 5.54

Can you share its pIC50? I mean this molecule: CC1(C)[C@H](C(=O)OCc2ccccc2)N2C(=O)[C@](NC(=O)COc3ccccc3)(O[C@@H]3CCNC3=O)[C@H]2S1(=O)=O 5.28

Can you share its pIC50? I mean this molecule: CC1(C)[C@H](C(=O)OCc2ccccc2)N2C(=O)[C@](NC(=O)COc3ccccc3)(OCc3ccccc3)[C@H]2S1(=O)=O 5.08

Can you share its pIC50? I mean this molecule: CC(C)(C)O[C@H]1C(=O)N2[C@@H](C(=O)OCc3ccccc3)C(C)(C)S(=O)(=O)[C@H]12 [27d] 4.68
